Target: T1, 4H3497-bN
T1 chain: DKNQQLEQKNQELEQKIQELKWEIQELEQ
Assay: two-hybrid library CCNG1;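 also: natural log of median RNA to DNA barcode read ratio; higher means stronger binding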
measure.name: interaction score

>>> measured("DENQQLKQKIQELKQKIQELKWENQELEQ [4H1899-bN]")
-0.658
>>> measured("DKNQQLEQEIQELKQKIQELEWKNQELEQ [4H3175-bN]")
-0.279
>>> measured("DKNQQLEQKNQELEQEIQELEWKIQELKQ [4H3462-bN]")
0.781
>>> measured("DENQQLKQEIQELEQEIQELEWKNQELKQ [4H1544-bN]")
0.211
>>> measured("DKNQQLEQEIQELKQENQELKWEIQELKQ [4H3162-bN]")
-0.903

1 = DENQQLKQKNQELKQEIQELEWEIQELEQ [4H1985-bN]
2 = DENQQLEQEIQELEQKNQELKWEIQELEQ [4H1081-bN]
Query: // max by interaction score over [ 1 , 2 ] Reply briefly: the label of your chosen item.
Reply: 2

I = DKNQQLEQKNQELEQKIQELKWEIQELEQ [4H3497-bN]
II = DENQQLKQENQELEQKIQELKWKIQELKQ [4H1710-bN]
III = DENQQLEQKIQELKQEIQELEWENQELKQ [4H1348-bN]
IV = DKNQQLEQENQELKQEIQELKWKIQELEQ [4H3277-bN]
Query: Sort these binders on interaction score so the largest reading comes first. Please respond by ranking the labels in the order requested.
Reply: II, III, IV, I
(II: 0.701, III: -0.431, IV: -0.895, I: -1.39)
